# measured.on: asialoglycoprotein receptor (Rattus norvegicus, UniProt P02706+P08290)
# Construct: parenchymal cells isolated from rat liver; endogenous in cells; host or cells: primary parenchymal cells (hepatocytes) isolated from rat liver
# Sequence (P02706 1-284): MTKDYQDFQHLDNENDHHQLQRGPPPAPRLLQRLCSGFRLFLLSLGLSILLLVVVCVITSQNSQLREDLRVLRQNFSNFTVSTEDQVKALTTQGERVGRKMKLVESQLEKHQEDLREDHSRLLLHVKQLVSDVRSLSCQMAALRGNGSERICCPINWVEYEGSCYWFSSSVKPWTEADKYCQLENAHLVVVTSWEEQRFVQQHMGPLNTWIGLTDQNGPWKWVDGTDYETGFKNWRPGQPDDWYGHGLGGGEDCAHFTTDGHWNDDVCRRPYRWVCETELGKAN
# Sequence (P08290 1-301): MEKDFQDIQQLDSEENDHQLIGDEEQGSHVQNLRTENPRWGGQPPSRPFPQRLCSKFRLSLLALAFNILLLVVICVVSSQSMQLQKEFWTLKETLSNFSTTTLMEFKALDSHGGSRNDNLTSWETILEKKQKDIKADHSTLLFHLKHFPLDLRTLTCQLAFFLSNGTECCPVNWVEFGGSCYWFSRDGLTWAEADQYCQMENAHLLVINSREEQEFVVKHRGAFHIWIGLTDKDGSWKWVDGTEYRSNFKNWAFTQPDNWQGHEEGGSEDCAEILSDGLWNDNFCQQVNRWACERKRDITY
# assay.method.text: Inhibition of binding of radiolabeled asialoorosomucoid to rat liver parenchymal cells
# test.conditions: rat liver parenchymal cells, labeled asialoorosomucoid; read-out: Asialoglycoprotein receptor Ki
pKi: −log10 of the molar value.
readout.label: pKi

Worked cases, pKi given:
[[record]]
molecule = "COC(=O)CCCCC(=O)NCC(=O)NC(COCOCCO[C@@H]1O[C@H](CO)[C@H](O)[C@H](O)[C@H]1O)(COCOCCO[C@@H]1O[C@H](CO)[C@H](O)[C@H](O)[C@H]1O)COCOCCO[C@@H]1O[C@H](CO)[C@H](O)[C@H](O)[C@H]1O [Compound 15b]"
readout_label = "pKi"
measured_result = 4.72

[[record]]
molecule = "COC(=O)CCCCC(=O)NCC(=O)NC(COCOCCOCCO[C@@H]1O[C@H](CO)[C@H](O)[C@H](O)[C@H]1O)(COCOCCOCCO[C@@H]1O[C@H](CO)[C@H](O)[C@H](O)[C@H]1O)COCOCCOCCO[C@@H]1O[C@H](CO)[C@H](O)[C@H](O)[C@H]1O [Compound 15d]"
readout_label = "pKi"
measured_result = 4.96

[[record]]
molecule = "COC(=O)CCCCC(=O)NCC(=O)NC(COCOCCOCCOCCOCCO[C@@H]1O[C@H](CO)[C@H](O)[C@H](O)[C@H]1O)(COCOCCOCCOCCOCCO[C@@H]1O[C@H](CO)[C@H](O)[C@H](O)[C@H]1O)COCOCCOCCOCCOCCO[C@@H]1O[C@H](CO)[C@H](O)[C@H](O)[C@H]1O [Compound 15e]"
readout_label = "pKi"
measured_result = 6.70


P: COC(=O)CCCCC(=O)NCC(=O)NC(CO[C@@H]1O[C@H](CO)[C@H](O)[C@H](O)[C@H]1O)(CO[C@@H]1O[C@H](CO)[C@H](O)[C@H](O)[C@H]1O)CO[C@@H]1O[C@H](CO)[C@H](O)[C@H](O)[C@H]1O [Compound 15a]
Q: COC(=O)CCCCC(=O)NCC(=O)NC(COCOCCCO[C@@H]1O[C@H](CO)[C@H](O)[C@H](O)[C@H]1O)(COCOCCCO[C@@H]1O[C@H](CO)[C@H](O)[C@H](O)[C@H]1O)COCOCCCO[C@@H]1O[C@H](CO)[C@H](O)[C@H](O)[C@H]1O [Compound 15c]
Could you please tell me which of these two has the higher pKi: P or Q ? Pick one; state its label.
Q
(Q: 5.92, P: 3.41)

----------
# measured.on: asialoglycoprotein receptor (Rattus norvegicus, UniProt P02706+P08290)
# Construct: parenchymal cells isolated from rat liver; endogenous in cells; host or cells: primary parenchymal cells (hepatocytes) isolated from rat liver
# assay.method.text: Inhibition of binding of radiolabeled asialoorosomucoid to rat liver parenchymal cells
# test.conditions: rat liver parenchymal cells, labeled asialoorosomucoid; read-out: Asialoglycoprotein receptor pKi (± S.E.) (converted)
readout.label: Ki (µM)

[[record]]
molecule = "COC(=O)CCCCC(=O)NCC(=O)NC(COCOCCOCCOCCOCCO[C@@H]1O[C@H](CO)[C@H](O)[C@H](O)[C@H]1O)(COCOCCOCCOCCOCCO[C@@H]1O[C@H](CO)[C@H](O)[C@H](O)[C@H]1O)COCOCCOCCOCCOCCO[C@@H]1O[C@H](CO)[C@H](O)[C@H](O)[C@H]1O [Compound 15e]"
readout_label = "Ki"
measured_result = 0.209


P: COC(=O)CCCCC(=O)NCC(=O)NC(COCOCCOCCO[C@@H]1O[C@H](CO)[C@H](O)[C@H](O)[C@H]1O)(COCOCCOCCO[C@@H]1O[C@H](CO)[C@H](O)[C@H](O)[C@H]1O)COCOCCOCCO[C@@H]1O[C@H](CO)[C@H](O)[C@H](O)[C@H]1O [Compound 15d]
Q: COC(=O)CCCCC(=O)NCC(=O)NC(COCOCCCO[C@@H]1O[C@H](CO)[C@H](O)[C@H](O)[C@H]1O)(COCOCCCO[C@@H]1O[C@H](CO)[C@H](O)[C@H](O)[C@H]1O)COCOCCCO[C@@H]1O[C@H](CO)[C@H](O)[C@H](O)[C@H]1O [Compound 15c]
R: COC(=O)CCCCC(=O)NCC(=O)NC(CO[C@@H]1O[C@H](CO)[C@H](O)[C@H](O)[C@H]1O)(CO[C@@H]1O[C@H](CO)[C@H](O)[C@H](O)[C@H]1O)CO[C@@H]1O[C@H](CO)[C@H](O)[C@H](O)[C@H]1O [Compound 15a]
S: COC(=O)CCCCC(=O)NCC(=O)NC(COCOCCO[C@@H]1O[C@H](CO)[C@H](O)[C@H](O)[C@H]1O)(COCOCCO[C@@H]1O[C@H](CO)[C@H](O)[C@H](O)[C@H]1O)COCOCCO[C@@H]1O[C@H](CO)[C@H](O)[C@H](O)[C@H]1O [Compound 15b]
Order these by Ki, descending, and give the full ranking. Lab note: final answer is the ordered label list.
R, S, P, Q
(R: 389 µM, S: 19.1 µM, P: 11.2 µM, Q: 1.23 µM)

----------
// Ki lookup, one value per entry
# measured.on: Fuc/Gal receptor on the hepatic Kupffer cell (Rattus norvegicus)
# Construct: Kupffer cells in DMEM medium, supplemented with 2% BSA and 2 mM CaCl2; endogenous in cells; host or cells: primary Kupffer cells of liver
# Sequence (P10716 1-550): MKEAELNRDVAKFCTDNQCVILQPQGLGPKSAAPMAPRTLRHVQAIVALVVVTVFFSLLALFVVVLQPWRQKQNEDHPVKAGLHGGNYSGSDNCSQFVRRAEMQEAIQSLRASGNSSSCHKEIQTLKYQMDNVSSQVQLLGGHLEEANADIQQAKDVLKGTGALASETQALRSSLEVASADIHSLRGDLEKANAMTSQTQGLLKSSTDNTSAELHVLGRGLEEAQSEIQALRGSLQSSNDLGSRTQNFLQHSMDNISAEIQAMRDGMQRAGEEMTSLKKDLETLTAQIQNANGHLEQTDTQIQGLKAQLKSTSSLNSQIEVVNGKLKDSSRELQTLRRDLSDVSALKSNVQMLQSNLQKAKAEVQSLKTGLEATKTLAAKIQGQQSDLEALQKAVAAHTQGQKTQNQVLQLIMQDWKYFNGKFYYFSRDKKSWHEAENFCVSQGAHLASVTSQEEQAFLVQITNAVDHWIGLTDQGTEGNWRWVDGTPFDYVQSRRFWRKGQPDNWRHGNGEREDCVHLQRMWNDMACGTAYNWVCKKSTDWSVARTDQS
# assay.method.text: Inhibition of 125I-Lac-LDL binding to Kupffer cells
# test.conditions: 4° C., 2 h, read-out: Fuc-Gal receptor Ki

Worked cases, Ki given:
[[record]]
compound = "COC(=O)CCCCC(=O)NCC(=O)NC(COCOCCCO[C@@H]1O[C@H](CO)[C@H](O)[C@H](O)[C@H]1O)(COCOCCCO[C@@H]1O[C@H](CO)[C@H](O)[C@H](O)[C@H]1O)COCOCCCO[C@@H]1O[C@H](CO)[C@H](O)[C@H](O)[C@H]1O [Compound 15c]"
measured_on = "Fuc/Gal receptor on the hepatic Kupffer cell (Rattus norvegicus)"
readout_label = "Ki"
measured_result = "> 100 µM"

[[record]]
compound = "COC(=O)CCCCC(=O)NCC(=O)NC(CO[C@@H]1O[C@H](CO)[C@H](O)[C@H](O)[C@H]1O)(CO[C@@H]1O[C@H](CO)[C@H](O)[C@H](O)[C@H]1O)CO[C@@H]1O[C@H](CO)[C@H](O)[C@H](O)[C@H]1O [Compound 15a]"
measured_on = "Fuc/Gal receptor on the hepatic Kupffer cell (Rattus norvegicus)"
readout_label = "Ki"
measured_result = "> 30 µM"


Would you mind telling me what Ki value was observed for COC(=O)CCCCC(=O)NCC(=O)NC(COCOCCOCCOCCOCCO[C@@H]1O[C@H](CO)[C@H](O)[C@H](O)[C@H]1O)(COCOCCOCCOCCOCCO[C@@H]1O[C@H](CO)[C@H](O)[C@H](O)[C@H]1O)COCOCCOCCOCCOCCO[C@@H]1O[C@H](CO)[C@H](O)[C@H](O)[C@H]1O [Compound 15e] ?
> 100 µM

Would you mind telling me what Ki value was observed for COC(=O)CCCCC(=O)NCC(=O)NC(COCOCCO[C@@H]1O[C@H](CO)[C@H](O)[C@H](O)[C@H]1O)(COCOCCO[C@@H]1O[C@H](CO)[C@H](O)[C@H](O)[C@H]1O)COCOCCO[C@@H]1O[C@H](CO)[C@H](O)[C@H](O)[C@H]1O [Compound 15b] ?
> 100 µM

Would you mind telling me what Ki value was observed for COC(=O)CCCCC(=O)NCC(=O)NC(COCOCCOCCO[C@@H]1O[C@H](CO)[C@H](O)[C@H](O)[C@H]1O)(COCOCCOCCO[C@@H]1O[C@H](CO)[C@H](O)[C@H](O)[C@H]1O)COCOCCOCCO[C@@H]1O[C@H](CO)[C@H](O)[C@H](O)[C@H]1O [Compound 15d] ?
> 100 µM
